Molecular target: Voltage-gated potassium channel subunit beta-2 (Rattus norvegicus)
Experiment: enhancers of rat Kvbeta2 NADPH turnover – biochemical, NADPH fluorescence, primary screen (AID 623);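 also: fluorescence intensity change per second fitted from 20 to 320 s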
Conditions: Recombinant KvBeta, NADPH fluorescence decrease slope, 10 min; at 10 µM; stronger effect = lower value
Overview of reported NADPH fluorescence slope across a group of molecules:
Respond with the number and no other words.

molecule=O=c1c2cc(N3CCOCC3)ccc2[nH]c(=S)n1CCCN1CCCCC1 measurement_target="Voltage-gated potassium channel subunit beta-2 (Rattus norvegicus)" assay_value=8.7e-06
molecule=Cc1ccc(NC(=O)c2cc(-c3ccc(C)o3)nc3ccccc23)nc1 measurement_target="Voltage-gated potassium channel subunit beta-2 (Rattus norvegicus)" assay_value=9.6e-06
molecule=Cc1cc(NS(=O)(=O)c2ccc(Nc3nc(-c4sc(N)nc4C)cs3)cc2)no1 measurement_target="Voltage-gated potassium channel subunit beta-2 (Rattus norvegicus)" assay_value=-7.5e-05
molecule="CC(=O)c1ccc(OCC(O)CN2CC(C)OC(C)C2)cc1 (stereo not given)" measurement_target="Voltage-gated potassium channel subunit beta-2 (Rattus norvegicus)" assay_value=9.2e-06
molecule=O=C(CN1CCCN(S(=O)(=O)c2ccc(Br)cc2)CC1)Nc1ccc2c(c1)OCO2 measurement_target="Voltage-gated potassium channel subunit beta-2 (Rattus norvegicus)" assay_value=-3.2e-05

Name the recorded NADPH fluorescence slope for O=C(Cn1nnc(-c2ccc(CN3CCOCC3)cc2)n1)NC1CCCCC1 . -4.1e-05

Name the recorded NADPH fluorescence slope for CCOc1cc(S(=O)(=O)N2CCC(Cc3ccccc3)CC2)c(OCC)cc1-n1cnnn1 . 9.5e-06

---

Overview of reported cell count across a group of compounds:
Test: inhibitors of TNFa-induced NFkB p65 translocation, primary screen, imaging, HUVEC, MLSMR starter and 10KST1 sets (AID 438);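 also: compound added about 3h40 before a 20 min TNFalpha stimulation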
Conditions: HUVEC TNFa-induced p65 nuclear translocation; measured here: nuclei count (cytotoxicity indicator), at 2.08 µM
Respond with the number and no other words.

In the examples that follow, each entry is paired with its recorded cell count.
compound="CC(CC(=O)NC1CCSC1=O)c1ccccc1 (stereo not drawn)" assay_value=396
compound="COC(=O)C1=C(C)NC2=C(C(=O)CCC2)C1c1coc2ccccc2c1=O (stereo not drawn)" assay_value=322
compound=c1cn(C23CC4CC(CC(C4)C2)C3)cn1 assay_value=362

Name the recorded cell count for Cc1cc(N=Cc2cc(Br)ccc2O)no1 . 330

Name the recorded cell count for CCOc1nc(-c2ccccc2)ccc1-c1noc(-c2ccc(OC)c(OC)c2)n1 . 418

---

Test: blockers of RIG-like receptor reporter activation – cell-based, Sendai virus stimulus, luciferase, 10K MLSCN set, TLR/RLR signaling modifier project, primary screen (AID 602276);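 also: firefly luciferase from ISG56 promoter only with Renilla not read in this screen; 0% = Sendai virus plus DMSO and 100% = medium plus DMSO without virus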
Conditions: HEK293 RL24 IRF3 luciferase reporter, at 10 µM, stronger effect = higher value
Overview of reported inhibition across a group of molecules:
Write it as a number; the unit % goes unstated.

molecule=COc1cccc(S(=O)(=O)Nc2ccc(C(=O)N3CCN(C(=O)c4ccco4)CC3)cc2)c1 assay_value=8.1
molecule=COc1ccccc1-c1nnc(SCc2ccccn2)n1C assay_value=-14.7

Name the recorded inhibition for COc1ccc(C2CC(c3cccc(C)c3)n3ncnc3N2)cc1 (stereo not drawn) . -16.2

Name the recorded inhibition for Cc1ccccc1NC(=O)C1CC(=O)N(c2ccccc2F)C1 (stereo not drawn) . 0.893

---

Overview of reported nuclei count across a group of molecules:
Assay: reduction of polyQ htt aggregates in cells – imaging, exon1htt(103Q)mCFP cells, high-content imaging, primary screen (AID 483);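 also: compound exposure lasted 3 days before fixation; percent of the per-plate median nuclei count of sample wells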
Conditions: exon1htt(103Q)mCFP cell line, aggregate imaging, at 2 µM; measured here: cell count, toxicity

Name the recorded nuclei count for CC(=O)Nc1ccc(OCC(O)Cn2nc(C)nc2C)cc1 (stereo unspecified) . 95.7%

Name the recorded nuclei count for CCCc1ccc(Oc2cn[nH]c2-c2ccc(O)c(C)c2O)cc1 . 98%

Name the recorded nuclei count for CC(C)NC(=O)c1ccc2c(c1)nnn2C . 104%

Name the recorded nuclei count for Cc1oc(-c2ccccc2F)nc1CS(=O)(=O)CC(=O)N1CCN(Cc2ccccc2)CC1 . 90.4%

Name the recorded nuclei count for COc1cccc(C(=O)NCc2nnc(SCC(=O)Nc3nccs3)n2-c2ccccc2)c1 . 120%

Name the recorded nuclei count for N#Cc1cnc(SCC(=O)c2ccccc2)nc1N . 63.1%

Name the recorded nuclei count for CCN(CC)S(=O)(=O)c1cccc(-c2nnc(SCC(N)=O)n2CCc2ccccc2)c1 . 105%

Name the recorded nuclei count for O=C1c2ccccc2CN1CCNS(=O)(=O)c1ccc(Cl)cc1 . 101%

Name the recorded nuclei count for CC1(c2ccc(Cl)cc2)NC(=O)N(CC(=O)NC(=O)NCc2ccco2)C1=O (stereo unspecified) . 102%

Name the recorded nuclei count for c1ccc(N2CCN(Cc3ccnc4ccccc34)CC2)cc1 . 83.9%

Name the recorded nuclei count for CCCS(=O)(=O)N1CCN(C(=O)c2cccnc2)CC1 . 98.3%

Where do the numbers come from? From PubChem BioAssay.
